# assay method text: Solubility test in organic solvents
# Format: physicochemical
# Set-up: key: X: not dissolved; ◯: partially dissolved; ⊚: completely dissolved
# stated conditions: 1 mg, room temperature (20 degrees Celsius), dichloromethane
result type: Solubility in dichloromethane

compound: CC(C)(C)C(=O)[CH-]C(=O)C(C)(C)C.CC(C)(C)C(=O)[CH-]C(=O)C(C)(C)C.CC(C)(C)C(=O)[CH-]C(=O)C(C)(C)C.[Tb+3] [Tb(TMHD)3, reference compound]
result type: Solubility in dichloromethane
result: ◯

compound: CC(C)(C)C(=O)C=C([O-])C(C)(C)C.CC(C)(C)C(=O)C=C([O-])C(C)(C)C.CC(C)(C)C(=O)C=C([O-])C(C)(C)C.O=S(c1ccccc1)c1ccccc1.[Tb+3]
result type: Solubility in dichloromethane
result: ⊚

compound: CC(C)(C)C(=O)C=C([O-])C(C)(C)C.CC(C)(C)C(=O)C=C([O-])C(C)(C)C.CC(C)(C)C(=O)C=C([O-])C(C)(C)C.CS(C)=O.[Tb+3]
result type: Solubility in dichloromethane
result: ⊚

compound: CC(C)(C)C(=O)C=C([O-])C(C)(C)C.CC(C)(C)C(=O)C=C([O-])C(C)(C)C.CC(C)(C)C(=O)C=C([O-])C(C)(C)C.CS(=O)c1ccccc1.[Tb+3]
result type: Solubility in dichloromethane
result: ⊚

====

# assay method text: Solubility test in organic solvents
# Assay type: physicochemical
# Parameters: key: X: not dissolved; ◯: partially dissolved; ⊚: completely dissolved
# stated conditions: 1 mg, room temperature (20 degrees Celsius), methyl ethyl ketone
# Procedure: 1 mg of Tb(TMHD)3—DMSO, Tb(TMHD)3—MPSO, Tb(TMHD)3—DPSO, Tb(TMHD)3, Tb(TMHD)3—OPNP are each dissolved under room temperature (20 degrees Celsius) in the following organic solvent: dichlormethane, acetonitrile, toluene, ethyl acetate, hexane, methyl cyclohexane methanol, methy ethyl ketone ether.
result type: Solubility in methyl ethyl ketone

molecule: CC(C)(C)C(=O)C=C([O-])C(C)(C)C.CC(C)(C)C(=O)C=C([O-])C(C)(C)C.CC(C)(C)C(=O)C=C([O-])C(C)(C)C.CS(=O)c1ccccc1.[Tb+3]
result: ⊚
--
molecule: CC(C)(C)C(=O)C=C([O-])C(C)(C)C.CC(C)(C)C(=O)C=C([O-])C(C)(C)C.CC(C)(C)C(=O)C=C([O-])C(C)(C)C.O=S(c1ccccc1)c1ccccc1.[Tb+3]
result: ⊚
--
molecule: CC(C)(C)C(=O)C=C([O-])C(C)(C)C.CC(C)(C)C(=O)C=C([O-])C(C)(C)C.CC(C)(C)C(=O)C=C([O-])C(C)(C)C.CS(C)=O.[Tb+3]
result: ⊚
--
molecule: CC(C)(C)C(=O)[CH-]C(=O)C(C)(C)C.CC(C)(C)C(=O)[CH-]C(=O)C(C)(C)C.CC(C)(C)C(=O)[CH-]C(=O)C(C)(C)C.[Tb+3] [Tb(TMHD)3, reference compound]
result: X

====

# assay method text: Solubility test in organic solvents
# Type: physicochemical
# Parameters: key: X: not dissolved; ◯: partially dissolved; ⊚: completely dissolved
# stated conditions: 1 mg, room temperature (20 degrees Celsius), hexane
result type: Solubility in hexane

compound: CC(C)(C)C(=O)C=C([O-])C(C)(C)C.CC(C)(C)C(=O)C=C([O-])C(C)(C)C.CC(C)(C)C(=O)C=C([O-])C(C)(C)C.CS(=O)c1ccccc1.[Tb+3]
result: ⊚

compound: CC(C)(C)C(=O)[CH-]C(=O)C(C)(C)C.CC(C)(C)C(=O)[CH-]C(=O)C(C)(C)C.CC(C)(C)C(=O)[CH-]C(=O)C(C)(C)C.[Tb+3] [Tb(TMHD)3, reference compound]
result: X

compound: CC(C)(C)C(=O)C=C([O-])C(C)(C)C.CC(C)(C)C(=O)C=C([O-])C(C)(C)C.CC(C)(C)C(=O)C=C([O-])C(C)(C)C.CS(C)=O.[Tb+3]
result: ⊚

compound: CC(C)(C)C(=O)C=C([O-])C(C)(C)C.CC(C)(C)C(=O)C=C([O-])C(C)(C)C.CC(C)(C)C(=O)C=C([O-])C(C)(C)C.O=S(c1ccccc1)c1ccccc1.[Tb+3]
result: ⊚
